Reported Decrease PGE-2 (IL-1beta-A549, %) is given for each of the following molecules.
# Test system: A549 cells
# procedure_summary: PGE2 levels in the medium of IL1-beta stimulated A549 cells;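 also: PGE2 in the collected culture medium quantified by enzyme immunoassay (ELISA), with data drawn from three independent experiments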
# Assay type: cell-based
# protocol_conditions: media of IL-1beta stimulated A549 cells
Report only the number, with the unit % understood.

These recorded examples may help you get a feel for the data.
| structure_smiles | unit_info | Decrease PGE-2 (IL-1beta-A549, %) |
| --- | --- | --- |
| COc1ccc(OC)c(N(CC(=O)Nc2ccnnc2)S(=O)(=O)c2ccccc2)c1 | % | 17.84 |
| COc1ccc(OC)c(N(CC(=O)Nc2csnc2C)S(=O)(=O)c2ccccc2)c1 | % | 31.90 |
| COc1ccc(OC)c(N(CC(=O)Nc2cccnc2)S(=O)(=O)c2ccc(F)cc2)c1 | % | 31.86 |

Consider the additional molecule presented here.
Fill blank: measured Decrease PGE-2 (IL-1beta-A549, %) of the molecule COc1ccc(OC)c(N(CC(=O)Nc2cncnc2)S(=O)(=O)c2ccccc2)c1 is ____.
−3.41
